Measured Ki values are reported for all entries that follow.
# experimental.target: 5-hydroxytryptamine receptor 1A (Homo sapiens, UniProt P08908)
# Sequence (P08908 whole entry): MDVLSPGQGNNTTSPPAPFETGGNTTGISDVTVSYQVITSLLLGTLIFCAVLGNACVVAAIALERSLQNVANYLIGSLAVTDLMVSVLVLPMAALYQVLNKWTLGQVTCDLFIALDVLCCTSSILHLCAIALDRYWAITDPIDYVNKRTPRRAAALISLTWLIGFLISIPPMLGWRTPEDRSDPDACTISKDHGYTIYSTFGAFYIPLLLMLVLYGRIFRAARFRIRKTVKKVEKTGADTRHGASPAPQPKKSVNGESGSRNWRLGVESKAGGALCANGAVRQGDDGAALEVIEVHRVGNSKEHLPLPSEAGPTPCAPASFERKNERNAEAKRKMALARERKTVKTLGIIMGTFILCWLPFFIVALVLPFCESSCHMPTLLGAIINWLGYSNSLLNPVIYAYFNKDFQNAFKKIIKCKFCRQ
The response must be a number in nM with no trailing unit.

O=S(=O)(c1ccccc1F)n1cc(C2=CCNCC2)c2ccccc21 875

INPUT: Provide Ki value for the following compound: Nc1ccc(S(=O)(=O)n2cc(C3=CCNCC3)c3ccccc32)cc1
OUTPUT: 1670

INPUT: Return the recorded Ki value; entry: COc1ccc2c(c1)c(C1=CCNCC1)cn2S(=O)(=O)c1ccc(N)cc1
OUTPUT: 97

INPUT: Item Nc1ccc(S(=O)(=O)n2cc(C3CCNCC3)c3ccc(Cl)cc32)cc1 : provide Ki
OUTPUT: 115

* * *

# experimental.target: UniProt P28335
# Sequence (P28335 whole entry): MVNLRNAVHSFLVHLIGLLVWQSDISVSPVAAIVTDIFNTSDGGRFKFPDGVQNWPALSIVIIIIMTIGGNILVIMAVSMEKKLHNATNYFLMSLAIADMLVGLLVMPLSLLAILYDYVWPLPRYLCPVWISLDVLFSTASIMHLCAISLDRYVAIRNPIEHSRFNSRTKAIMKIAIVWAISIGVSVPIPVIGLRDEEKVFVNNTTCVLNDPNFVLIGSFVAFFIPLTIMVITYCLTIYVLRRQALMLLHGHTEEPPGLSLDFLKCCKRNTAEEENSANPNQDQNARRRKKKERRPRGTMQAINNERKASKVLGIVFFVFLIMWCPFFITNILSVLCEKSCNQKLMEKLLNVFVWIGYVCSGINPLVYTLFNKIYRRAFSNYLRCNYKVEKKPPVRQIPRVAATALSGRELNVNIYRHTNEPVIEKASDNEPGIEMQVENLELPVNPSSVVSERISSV
observed.property: pKi
Reminder that pKi is minus the log10 of a molar concentration.

INPUT: Give pKi only, for O=S(=O)(c1ccccc1Cl)n1cc(C2=CCNCC2)c2ccccc21 , using UniProt P28335 data.
OUTPUT: 6.42

* * *

5-hydroxytryptamine receptor 6 (Homo sapiens) Ki data
Sequence (P50406 whole entry): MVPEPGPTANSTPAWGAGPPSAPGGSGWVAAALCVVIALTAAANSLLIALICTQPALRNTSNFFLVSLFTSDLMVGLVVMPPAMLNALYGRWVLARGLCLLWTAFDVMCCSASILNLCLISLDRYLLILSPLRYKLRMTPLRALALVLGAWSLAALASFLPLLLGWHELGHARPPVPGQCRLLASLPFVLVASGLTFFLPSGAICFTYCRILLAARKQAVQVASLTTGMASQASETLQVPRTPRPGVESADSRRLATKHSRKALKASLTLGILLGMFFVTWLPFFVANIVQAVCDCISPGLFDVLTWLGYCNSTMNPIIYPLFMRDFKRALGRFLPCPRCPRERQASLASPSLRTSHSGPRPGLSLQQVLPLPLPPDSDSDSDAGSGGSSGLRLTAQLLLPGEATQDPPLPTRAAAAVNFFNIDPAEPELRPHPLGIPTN
Give the value in nM but do not write nM after it.

Observe how each entry below is paired with its result.
COc1ccc(S(=O)(=O)n2cc(C3=CCNCC3)c3ccccc32)cc1 18
CN1CC=C(c2cn(S(=O)(=O)c3ccccc3)c3ccccc23)CC1 2
CN1CC=C(c2c[nH]c3ccccc23)CC1 98
O=S(=O)(c1ccccc1)n1cc(C2=CCN(Cc3ccccc3)CC2)c2ccccc21 246

Pending molecule:
INPUT: Consider the molecule CN1CC=C(c2cn(S(=O)(=O)c3ccc(F)cc3)c3ccccc23)CC1 . State its measured Ki.
OUTPUT: 5

* * *

Let's go through some recorded pKi values for 5-hydroxytryptamine receptor 6 (Homo sapiens) together.
The read-out pKi is expressed as -log10 of concentration in moles per litre.

Worked set:
O=S(=O)(c1ccccc1F)n1cc(C2=CCNCC2)c2ccccc21 9.00
COc1ccc2c(c1)c(C1=CCNCC1)cn2S(=O)(=O)c1ccc(N)cc1 8.52

INPUT: Give me measured pKi, please, for this compound: Nc1ccc(S(=O)(=O)n2cc(C3=CCNCC3)c3cc(Br)ccc32)cc1
OUTPUT: 8.15
